# Tested On: Estrogen receptor (Homo sapiens)
# Measurement Notes: ATG_ERa_TRANS: Attagene TRANS-FACTORIAL HepG2 Assay for human Estrogen Receptor alpha (ERa) (AID 2282970)
# Particulars: HepG2 Attagene TRANS ERa GAL4 reporter, mRNA
Results filed as inconclusive are left out. Active and inactive are the calls of the source. How the source made its calls: active means hit-call score of the fitted dose curve at least 0.9, where 1 is the maximum; inconclusive means response in the unintended direction; inactive means score below 0.9.
Please reply with one of these outcomes: 1 for active, 0 for inactive

Which result was noted for this compound in the test: `CCc1c(C(=O)O)c(=O)cnn1-c1ccc(Cl)cc1` 0

Assay result, entry `CCN(CC)c1ccc(C(=O)c2ccccc2C(=O)O)c(O)c1` — outcome? 0

Please share the test call associated with `O=C1CCCCCN1SSN1CCCCCC1=O` . 0

# fetch the recorded call for `C=C(C)C(=O)OCC(C)C` here 0

I'd appreciate the recorded outcome for `CN(C)c1ccc(C(=N)c2ccc(N(C)C)cc2)cc1` from this test. 0

Each compound tested received a call. Report the one for `COc1ccc([C@@H]2CC(=O)c3c(O)cc(O[C@@H]4O[C@H](CO[C@@H]5O[C@@H](C)[C@H](O)[C@@H](O)[C@H]5O)[C@@H](O)[C@H](O)[C@H]4O)cc3O2)cc1OC` . 0

Name the outcome recorded for `CC(=O)c1ccc[nH]1` in the assay. 0

Test call, this compound: `Nc1ccc2cc3ccccc3cc2c1` 1

Which outcome did this test record for the compound `COc1cc(C)ccc1C(C)C` ? 0

What did this assay record as the result for `Nc1ccc(N)c(Cl)c1` ? 1

Query: recorded result category for `CCCCCCOc1cc(C)c(O)c(C)c1C` in this test 0

Query: recorded result category for CCCCC(CC)COC(=O)c1ccccc1O (centres undefined) in this test 1

Hello, I am checking results. What call was entered for `O=C1c2cccc(O)c2C(=O)c2c(O)cc(CO)cc21` ? 1

Field: outcome | Entry: `COc1ccc2nc(N)sc2c1` 0

Per the records of this test, what outcome belongs to `O=[N+]([O-])c1ccc(CO)cc1` ? 0

Outcome logged for `CNC(=S)N(C)C` in this assay: 0

Recorded test call requested for `OC1CCCCCCCCCCC1` 1

// outcome(item) with item = `CC(C)=CCC/C(C)=C\C#N` 0

Which outcome was entered for the compound `CN(C)CCCN(C)C` in this test? 0

Any idea what this test logged for `O=C(O)C(c1ccc(Cl)cc1)c1ccc(Cl)cc1` ? 1

Each compound tested received a call. Report the one for `CC(C)c1ccc2c(c1)CC[C@H]1[C@](C)(CN)CCC[C@]21C` . 0

Outcome logged for `c1ccc2c(c1)ccc1cc3c(ccc4ccccc43)cc12` in this assay: 0

Test call, this compound: `O=C(Nc1ccccc1)c1ccccc1O` 1

Outcome? CC(CC=O)CCCC(C)(C)O (centres undefined) 0

Recorded test call requested for `CCOC(=O)CC(C(C)=O)C(C)=O` 0

Tell me the recorded outcome of this test for `CCCCCCCCCCC=CC#N` . 1

Dear all, I need the recorded test outcome for `Nc1ncn([C@@H]2O[C@H](CO)[C@@H](O)[C@H]2O)c(=O)n1` , thank you. 0

Assay result, entry `CC/C=C\C/C=C\C/C=C\CCCCCCCC(=O)O` — outcome? 0

Hi, sorry to bother you, what did the test record for `Nc1cccc(C(F)(F)F)c1` ? 0

* * *

# Measurement Notes: ATG_VDRE_CIS: Attagene CIS-FACTORIAL HepG2 Assay for human Vitamin D Receptor Element (VDRE) (AID 2282968)
# Particulars: HepG2 VDRE cis-reporter transcription, actives raise or lower the signal
The source made the active and inactive calls. Rule for the calls: active = hit-call score of the fitted dose curve at least 0.9, where 1 is the maximum; inactive = score below 0.9.
Allowed answers: True (active), False (inactive)

GET /call?item= `CC(C)(c1cc(Br)c(OCCO)c(Br)c1)c1cc(Br)c(OCCO)c(Br)c1` returns the recorded outcome of this test. True

Please let me know the test result on file for `Cc1cc(C)c(C(=O)O)c(C)c1` . False

# lookup: test call for `CCCC(=O)OCc1ccccc1` False

Could you please tell me the result logged for `O=c1[nH]nc(-c2ccc([N+](=O)[O-])o2)o1` in this assay? False

Per the assay record, what outcome was assigned to `Cc1ccc(C(C)c2ccc(C)c(C)c2)cc1C` ? False

Give the logged outcome of this assay for the following molecule: `Cc1ccc(N)c([N+](=O)[O-])c1` False

Outcome? `CCCCCCCCC(=O)OCC` False

Called result for `CCOC(=O)CC` False

Tell me the assay call for `C=CCOc1c(Br)cc(Br)cc1Br` please. True

Returns: the outcome recorded for CCCCC(CC)COC(=O)c1ccccc1O (stereo not drawn) in this assay. False

Recorded test outcome, item `Cc1cc(C)c(C)c(C)c1` False

I would be grateful if you could indicate the recorded call for CCC(C)OC(=O)c1ccc(O)cc1 (stereo not drawn) . True

# outcome recorded in this test, key = `O=C1CCCN1CCO` False

Assay result, entry `CCc1nccnc1C` — outcome? False

Answer briefly: the call reported for `CCOc1nc(F)cc2nc(S(=O)(=O)Nc3c(Cl)cccc3C(=O)OC)nn12` in this assay. True

Returns: the outcome recorded for `OCCN(CCO)c1ccccc1` in this assay. False

Outcome logged for `C[Si](C)(C)O[Si](O)(O)O` in this assay: False

Any idea what this test logged for `O=[N+]([O-])C1(Br)COCOC1` ? False

Which result was noted for this molecule in the test: `CC(C)C1=CC2=CC[C@@H]3[C@](C)(CCC[C@@]3(C)C(=O)O)[C@H]2CC1` True

Recorded test call requested for CC1=NN(c2cc(S(=O)(=O)O)ccc2Cl)C(=O)C1N=Nc1ccccc1 (stereo not drawn) False

I would be grateful if you could indicate the recorded call for CCCCCC(C)O (stereo not drawn) . False

Recorded test call requested for `COc1ccc2nc(N)sc2c1` False

Hey, what did the test say about C=CCOCC(O)CCl (stereo not drawn) ? True

# lookup: test call for `O=S(=O)(O)c1cc(S(=O)(=O)O)c2ccc3c(S(=O)(=O)O)cc(S(=O)(=O)O)c4ccc1c2c43` False

Tell me the assay call for `CC(C)(C)c1ccc(OC(=O)c2ccccc2O)cc1` please. False

# lookup: test call for CN1C(=O)N(C)C(O)C1O (stereo not drawn) False

Status in this test for `O=C1CCCCCCCCCCC(=O)OCCO1` ? False

Dear all, I need the recorded test outcome for `C=CC(C)(C)C` , thank you. False

Hi, sorry to bother you, what did the test record for NC(=O)C1CO1 (stereo not drawn) ? False

Status in this test for `Cc1cc(=O)n(-c2ccccc2)n1C` ? False

// return assay outcome for `CCCCNc1ccc(NCCCC)c2c1C(=O)c1ccccc1C2=O` False

What outcome does the record of this test show for `CCOC(=O)NNc1nncc2ccccc12` ? False

GET /call?item= CCCCC(CC)COCC1CO1 (stereo not drawn) returns the recorded outcome of this test. False

Fill in: this test's call for `Cn1c([N+](=O)[O-])cnc1COC(N)=O` is ___ False

Fill in: this test's call for `COC(=O)c1c(C)cc(O)c(C)c1O` is ___ False

Which outcome was assigned to `CC(C)(C)C(=O)CCc1ccc(Cl)cc1` in this test? True

Hey, what did the test say about `O=C(O)CCCC[C@@H]1SC[C@@H]2NC(=O)N[C@@H]21` ? False

Could you check what this test reported for `CCC(CO)CO` ? False

Which outcome was entered for the molecule O=C(O)CC(C(=O)O)C(CC(=O)O)C(=O)O (stereo not drawn) in this test? False

So what was the verdict on `CC(=O)CC(N)=O` in this test? False

Please let me know the test result on file for `O=CN1CCCCC1` . False

What was the test verdict on `CCc1ccc2c(c1)C(=O)c1ccccc1C2=O` ? True

// return assay outcome for `Nc1ncn([C@@H]2O[C@H](CO)[C@@H](O)[C@H]2O)c(=O)n1` False

Hello, I am checking results. What call was entered for `CC1=CC[C@H]2C[C@@H]1C2(C)C` ? False

GET /call?item= `C=C[C@](C)(O)CC[C@@H]1[C@@]2(C)CCCC(C)(C)[C@@H]2CC[C@@]1(C)O` returns the recorded outcome of this test. False

Answer briefly: the call reported for CCC(C)(C)C1CCCCC1OC(C)=O (stereo not drawn) in this assay. False

Test call, this molecule: CC(C)=CC1CC(C)CCO1 (stereo not drawn) False

# lookup: test call for `CC(=O)c1ccc2c(c1)CCCC2` False

Outcome logged for `FC(F)(F)C(=NOCC1OCCO1)c1ccc(Cl)cc1` in this assay: False

Per the records of this test, what outcome belongs to `O=S(=O)(O)c1ccc2cc(O)c(S(=O)(=O)O)cc2c1` ? False

What did the test return for C=C1C2CCC(C2)C1(C)C (stereo not drawn) ? False

Per the records of this test, what outcome belongs to c1cc(C(c2ccc(OCC3CO3)cc2)C(c2ccc(OCC3CO3)cc2)c2ccc(OCC3CO3)cc2)ccc1OCC1CO1 (stereo not drawn) ? True

Returns: the outcome recorded for `CCCCCCCCCCCCCCCC[n+]1ccccc1` in this assay. True

Identify the outcome logged in this assay for the molecule shown: CC(C)=CCCC(C)C=O (stereo not drawn) True

Assay result, entry `COc1c2ccoc2cc2oc(=O)ccc12` — outcome? False

# outcome recorded in this test, key = `C/C=C\C/C=C/CCCCCCCCOC(C)=O` True

Could you kindly confirm the outcome this assay logged for `O=C1c2ccccc2C(=O)C1c1nc2ccccc2c(Br)c1O` ? True

Recorded call for C=CC(C)(CCC=C(C)C)OC(=O)CC(C)C (stereo not drawn) ? False

Taken from PubChem BioAssay (EPA / NIEHS).
